Assay: Pharmacokinetic study in dogs (Test Example 1), intragastric administration
Type: in vivo
Conditions: beagle, dog, plasma; beagles; Compound 5 administered PO 4.3 mg/kg; molecule detected Compound 5; mean value
value-type: Tmax (min)
Write the answer as a number in min, unit excluded.

Query block: For the compound Cc1ccccc1C(=O)Nc1ccc(C(=O)N2CCCC(OCOP(=O)(O)OCC[N+](C)(C)C)c3cc(Cl)ccc32)c(C)c1 (stereo not shown) [Compound 5] , give its measured Tmax value.
Result block: 23.3

* * *

Test: Pharmacokinetic study in dogs (Test Example 1), intragastric administration
Assay type: in vivo
Conditions: beagle, dog, plasma; beagles; Compound 5 administered PO 4.3 mg/kg; molecule detected Compound 5; mean value
value-type: half-life (h)
Reply numerically in h, unit not repeated.

Query block: Let me know recorded half-life for Cc1ccccc1C(=O)Nc1ccc(C(=O)N2CCCC(OCOP(=O)(O)OCC[N+](C)(C)C)c3cc(Cl)ccc32)c(C)c1 (stereo not shown) [Compound 5] , thanks.
Result block: 1.43

* * *

Experiment: Pharmacokinetic study in beagles (Test Example 5), intravenous drip and intragastric administration
Type: in vivo
Conditions: beagle, dog, plasma, po, Tolvaptan 10 mg/kg p.o., molecule detected Tolvaptan, mean value
Procedure: 1.1.1. Experimental Animals: Beagles, Non-Naïve, Sourced from the Animal Repository of Medicilon: 999M-004. […] The compounds of the intravenous administration group were administered via an intravenous drip over 1 h. […] Plasma samples were separated and cryopreserved at −70° C., and the levels of related compounds in vivo were determined by LC-MS/MS. […]
value-type: AUC(0-t) (ng·h/mL)
Field: numeric (ng·h/mL). Do not append units.

Query block: Annotate the compound Cc1ccccc1C(=O)Nc1ccc(C(=O)N2CCCC(O)c3cc(Cl)ccc32)c(C)c1 (stereo not shown) [Tolvaptan, reference compound] with its measured AUC(0-t).
Result block: 10.2

* * *

Experiment: Pharmacokinetic study in rats (Test Example 4), intragastric administration
Format: in vivo
Conditions: Sprague-Dawley, rat, plasma; SD rats, male; Compound 5 PO 12.9 mg/kg; molecule detected Compound 5; mean value
value-type: Tmax (min)
Give your result in min as a bare value.

Query block: State its Tmax: Cc1ccccc1C(=O)Nc1ccc(C(=O)N2CCCC(OCOP(=O)(O)OCC[N+](C)(C)C)c3cc(Cl)ccc32)c(C)c1 (stereo not shown) [Compound 5]
Result block: 10

* * *

Assay: Pharmacokinetic study in rats (Test Example 3), intravenous injection
Assay type: in vivo
Settings: both sexes, Sprague-Dawley, rat, plasma, iv; SD rats; Compound M i.v. 3.91 mg/kg; molecule detected Compound M; mean value
value-type: Cmax (ng/mL)
Quick note: give the figure in ng/mL, leave out the unit.

Query block: Tell us which Cmax value is on record for Cc1ccccc1C(=O)Nc1ccc(C(=O)N2CCCC(OC(=O)[C@@H](N)C(C)C)c3cc(Cl)ccc32)c(C)c1 (stereo partly shown) [Compound M]
Result block: 719

* * *

Experiment: Pharmacokinetic study in beagles (Test Example 5), intravenous drip and intragastric administration
Assay type: in vivo
Conditions: beagle, dog, plasma, po, Compound 5 2.7 mg/kg p.o., molecule detected Compound 5, mean value
value-type: half-life (h)
Answer format: numeric, h implied, no suffix.

Query block: Return value of half-life for input Cc1ccccc1C(=O)Nc1ccc(C(=O)N2CCCC(OCOP(=O)(O)OCC[N+](C)(C)C)c3cc(Cl)ccc32)c(C)c1 (stereo not shown) [Compound 5] , no commentary.
Result block: 1
